- System: Setaria faberi (SETFA)
- Procedure Text: Experiment B1 glasshouse herbicide test, pre- and post-emergence, percentage damage
- Assay type: in vivo
- Study Conditions: POST Application (post-emergence, after 8 days cultivation), 1000 g/h, evaluated after 13 days
Assay Metric: percentage damage caused to the plant, five point scale, SETFA

{"columns": ["Compound", "Value"],
 "data": [
  ["Cc1ccc2cc(C(=O)Nc3nnnn3C)c(C)c(-c3ccc(S(C)(=O)=O)cc3)c2n1 [Compound 1.038]", "5 (5=80-100%)"],
  ["O=C(Nc1nnnn1-c1ccccc1)c1cc2cccnc2c(-c2ccccc2)c1C(F)(F)F [Compound 1.033]", "2 (2=20-39%)"],
  ["CSc1c(C(=O)Nc2nnnn2C)cc2cccnc2c1-c1ccccc1 [Compound 1.032]", "5 (5=80-100%)"],
  ["CCn1nnnc1NC(=O)c1cc2cccnc2c(-c2ccccc2)c1C(F)(F)F [Compound 1.002]", "5 (5=80-100%)"],
  ["CCCn1nnnc1NC(=O)c1cc2cccnc2c(-c2ccccc2)c1C(F)(F)F [Compound 1.003]", "2 (2=20-39%)"],
  ["Cc1ccc(-c2c(C(F)(F)F)c(C(=O)Nc3nnnn3C)cc3cccnc23)cc1 [Compound 1.017]", "5 (5=80-100%)"],
  ["Cc1c(C(=O)Nc2nnnn2C)cc2cccnc2c1-c1ccc(Cl)cc1 [Compound 1.036]", "5 (5=80-100%)"],
  ["Cn1nnnc1NC(=O)c1cc2cccnc2c(-c2ccccc2)c1Cl [Compound 1.011]", "5 (5=80-100%)"]
]}

###

- Test system: Ipomoea hederacea (IPOHE)
- Procedure Text: Experiment B1 glasshouse herbicide test, pre- and post-emergence, percentage damage
- Assay type: in vivo
- Study Conditions: PRE Application (pre-emergence, after cultivation for one day), 1000 g/h, evaluated after 13 days
- Protocol: Seeds of a variety of test species are sown in standard soil in pots (Lolium perenne (LOLPE), Solanum nigrum (SOLNI), Amaranthus retoflexus (AMARE), Setaria faberi (SETFA), Echinochloa crus-galli (ECHCG), Ipomoea hederacea (IPOHE)). […] After 13 days for pre and post-emergence, the test is evaluated for the percentage damage caused to the plant. […]
# Lookup of reported percentage damage caused to the plant, five point scale, IPOHE keyed by entry
Assay Metric: percentage damage caused to the plant, five point scale, IPOHE

{"columns": ["Compound", "Target Entity", "Value"],
 "data": [
  ["O=C(Nc1nnnn1-c1ccccc1)c1cc2cccnc2c(-c2ccccc2)c1C(F)(F)F [Compound 1.033]", "Ipomoea hederacea (IPOHE)", "3 (3=40-59%)"],
  ["COc1c(C(=O)Nc2nnnn2C)cc2cccnc2c1-c1ccccc1 [Compound 1.009]", "Ipomoea hederacea (IPOHE)", "5 (5=80-100%)"],
  ["Cc1c(C(=O)Nc2nnnn2C)cc2cccnc2c1-c1ccc(S(C)(=O)=O)cc1 [Compound 1.031]", "Ipomoea hederacea (IPOHE)", "5 (5=80-100%)"],
  ["Cc1c(C(=O)Nc2nnnn2C)cc2cccnc2c1-c1ccc(F)cc1 [Compound 1.035]", "Ipomoea hederacea (IPOHE)", "5 (5=80-100%)"]
]}

###

- System: Echinochloa crus-galli (ECHCG)
- Procedure Text: Experiment B1 glasshouse herbicide test, pre- and post-emergence, percentage damage
- Type: in vivo
- Study Conditions: POST Application (post-emergence, after 8 days cultivation), 1000 g/h, evaluated after 13 days
# Lookup of reported percentage damage caused to the plant, five point scale, ECHCG keyed by entry
Assay Metric: percentage damage caused to the plant, five point scale, ECHCG

{"columns": ["Compound", "Value"],
 "data": [
  ["CSc1ccc(-c2c(C)c(C(=O)Nc3nnnn3C)cc3cccnc23)cc1 [Compound 1.030]", "5 (5=80-100%)"],
  ["CSc1c(C(=O)Nc2nnnn2C)cc2cccnc2c1-c1ccccc1 [Compound 1.032]", "5 (5=80-100%)"],
  ["COc1c(C(=O)Nc2nnnn2C)cc2cccnc2c1-c1ccccc1 [Compound 1.009]", "5 (5=80-100%)"],
  ["O=C(Nc1nnnn1-c1ccccc1)c1cc2cccnc2c(-c2ccccc2)c1C(F)(F)F [Compound 1.033]", "2 (2=20-39%)"],
  ["Cc1ccc(-c2c(C(F)(F)F)c(C(=O)Nc3nnnn3C)cc3cccnc23)cc1 [Compound 1.017]", "5 (5=80-100%)"],
  ["COc1ccc(-c2c(C)c(C(=O)Nc3nnnn3C)cc3ccc(C)nc23)cc1 [Compound 1.037]", "5 (5=80-100%)"]
]}
